Reference source for all entries: patent EP1619195A2

Tested on: HT-29 (colon cancer)
test.name: cells
run.conditions: Homo sapiens, HT-29, HT-29; positive control
endpoint: IC50 (nM)
API: value field is a number in nM; no unit string.

Provide the documented IC50 with HT-29 (colon cancer) as the system for CO[C@@]12[C@H](COC(N)=O)C3=C(C(=O)C(C)=C(N)C3=O)N1C[C@@H]1N[C@@H]12 [mitomycin, reference compound]
90

====

Tested on: MCF-7 (breast cancer)
test.name: cells
run.conditions: MCF-7; 50% cell destroying lethal concentration
endpoint: LC50 (µg/mL)
State just the number; it will be interpreted in µg/mL.

Past entries and their recorded results:
>  <molecule>
CC(C)=CCCC1(C)C=Cc2c(O)c3c(c(CC=C(C)C)c2O1)OC12C(=CC4CC1C(C)(C)OC2(CC=C(C)C(=O)O)C4=O)C3=O (centres unmarked)

>  <LC50 (µg/mL)>
4.3

$$$$
>  <molecule>
CC(C)=CCc1c2c(c(O)c3c1OC14C(=CC5CC1C(C)(C)OC4(CC=C(C)C(=O)O)C5=O)C3=O)C=CC(C)(C)O2 (centres unmarked) [TSB-2, isomorellic acid]

>  <LC50 (µg/mL)>
24

$$$$
>  <molecule>
CC(C)=CCc1c2c(c(O)c3c1OC14C(=CC5CC1C(C)(C)OC4(CC=C(C)CO)C5=O)C3=O)C=CC(C)(C)O2 (centres unmarked)

>  <LC50 (µg/mL)>
5.8

$$$$

Tell me the measured LC50 of CC(C)=CCc1c2c(c(O)c3c1OC14C(=CC5CC1C(C)(C)OC4(CC=C(C)C)C5=O)C3=O)C=CC(C)(C)O2 (centres unmarked) , please.
83

Proceed to CC(C)=CCc1c2c(c(O)c3c1OC14C(=CC5CC1C(C)(C)OC4(CC=C(C)C(=O)O)C5=O)C3=O)C=CC(C)(C)O2 (centres unmarked) [TSB-7, morellic acid]
6.2
